Test system: SN12C
procedureDetails: Cytotoxicity against human SN12C cells assessed as cell growth at 10 uM after 48 hrs by SRB assay relative to control
Format: functional
measurementParameters: read-out: Activity
Catalogue of growth at 10 µM values

INSERT INTO measurements (chemicalstring, testedon, valuekind, resultvalue) VALUES
  ('COc1ccc(CCN2COc3c([C@@H](C)CCC=C(C)C)ccc(C)c3C2)cc1OC', 'SN12C', 'growth at 10 µM', '15%'),
  ('CC(C)=CCC[C@H](C)c1ccc(C)c2c1OCN(CCO)C2', 'SN12C', 'growth at 10 µM', '79.6%'),
  ('CC(C)=CCC[C@H](C)c1ccc(C)c(CO)c1O', 'SN12C', 'growth at 10 µM', '91.3%'),
  ('CC(C)=CCC[C@H](C)c1ccc(C)c2c1OCN(CCCCC(=O)O)C2', 'SN12C', 'growth at 10 µM', '97.6%'),
  ('CC(C)=CCC[C@H](C)c1ccc(C)c2c1OCN(CCCCCO)C2', 'SN12C', 'growth at 10 µM', '78.6%');

Task: Identify the measured growth at 10 µM of `CC(C)=CCC[C@H](C)c1ccc(C)c(CNCC2CCNCC2)c1O` for SN12C.
Output: 78%

Task: Try `CC(C)=CCC[C@H](C)c1ccc(C)c(CNCCCCCO)c1O` next.
Output: 98%
